Molecular target: UniProtKB P32245
Sequence (P32245 whole entry): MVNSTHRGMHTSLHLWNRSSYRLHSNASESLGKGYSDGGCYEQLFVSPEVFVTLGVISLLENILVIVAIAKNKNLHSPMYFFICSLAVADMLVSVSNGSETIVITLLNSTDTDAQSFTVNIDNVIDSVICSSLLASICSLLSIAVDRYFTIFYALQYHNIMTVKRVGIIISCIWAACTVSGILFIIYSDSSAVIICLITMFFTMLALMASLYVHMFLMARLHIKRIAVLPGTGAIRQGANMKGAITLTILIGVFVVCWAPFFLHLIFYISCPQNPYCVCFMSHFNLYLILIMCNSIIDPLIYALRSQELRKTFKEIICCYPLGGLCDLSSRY
Test: Cyclic AMP assay (HTRF), antagonist competition against NDP-α-MSH
Details: HEK293T cells stably expressing WT-hMC4R; inhibition of response to 4 nM NDP-α-MSH; cAMP
pIC50: −log10 of the molar value.
attributeMeasured: pIC50

Some entries whose results are on file:
- molecule: "COc1ccc(Nc2nc3ccc(C(=O)N4CC5CCC(CC5)C4)nc3n2CCCN2CCCCC2)cc1"
  experimentalSystem: "UniProtKB P32245"
  pIC50: "4.82 to 6.00"
- molecule: "CC(C)CCN(CCC(C)C)C(=O)c1ccc2nc(Nc3ccc(C(C)O)cc3)n(CCCN3CCCCC3)c2n1 (stereo not drawn)"
  experimentalSystem: "UniProtKB P32245"
  pIC50: "> 7.00"
- molecule: "CC(=O)N1CCC(c2nc3ccc(C(=O)N(CCC(C)C)CCC(C)C)nc3n2CCCN2CCOCC2)CC1"
  experimentalSystem: "UniProtKB P32245"
  pIC50: "4.82 to 6.00"

// returns pIC50 for CCCCN(CCCC)C(=O)c1ccc2nc(Oc3ccc(OC)cc3)n(CCCN3CCCCC3)c2n1 with UniProtKB P32245; value = 6.00 to 7.00

// returns pIC50 for CCCCN(CCCC)C(=O)c1ccc2nc(C)n(CCCN3CCCCC3)c2n1 with UniProtKB P32245; value = 4.82 to 6.00

// returns pIC50 for COc1ccc(-c2nc3cnc(C(=O)N(CCC(C)C)CCC(C)C)cc3n2CCCN2CCCCC2)cc1 with UniProtKB P32245; value = 6.00 to 7.00

// returns pIC50 for CCCCN(CCCC)C(=O)c1ccc2nc(Nc3ccc(OC)cc3)n(CCCN3CCCCC3)c2n1 with UniProtKB P32245; value = > 7.00

// returns pIC50 for CCCCN(CCCC)C(=O)c1ccc2nc(Nc3ccc(C)cc3)n(CCCN3CCCCC3)c2n1 with UniProtKB P32245; value = > 7.00

// returns pIC50 for COc1ccc(-c2nc3cnc(C(=O)N(CCC(C)C)CCC(C)C)nc3n2CCCN2CCCCC2)cc1 with UniProtKB P32245; value = 6.00 to 7.00

// returns pIC50 for COc1ccc(Nc2nc3ccc(-c4cc5ccccc5n4C(=O)OC(C)(C)C)nc3n2CCCN2CCCCC2)cc1 with UniProtKB P32245; value = 4.82 to 6.00

// returns pIC50 for COc1ccc(Nc2nc3ccc(C(=O)N(CCC(C)C)CCC(C)C)nc3n2CCCN2CCCCC2)cc1 with UniProtKB P32245; value = > 7.00

// returns pIC50 for CCCN(C(=O)c1ccc2nc(Nc3ccc(OC)cc3)n(CCCN3CCCCC3)c2n1)C(C)CC (stereo not drawn) with UniProtKB P32245; value = 6.00 to 7.00

Data origin, for the record: patent US20130165426A1
